Tested on: Mycobacterium tuberculosis
assay_method_text: Compounds tested against Mycobacterium tuberculosis (MIC90)
Format: cell-based
measurement_conditions: read-out: M. tb. MIC90
Cut-off 2 µg/mL on MIC90: below means y, at or above means n.

Example entries begin here.
[[record]]
compound = "Cl.Cl.N=C(N)c1ccc(OCCCCCOc2ccc(-c3cc4cc(C(=N)N)ccc4o3)cc2)cc1 [Compound 50]"
classification = "y"

[[record]]
compound = "Cl.Cl.N=C(N)c1ccc(OCCCCOc2ccc(-c3cc4ccc(C(=N)N)cc4o3)cc2)cc1 [Compound 71]"
classification = "y"

[[record]]
compound = "Cl.Cl.c1cc(C2=NCCN2)ccc1OCCCCCCOc1ccc(-c2cc3ccc(C4=NCCN4)cc3o2)cc1 [Compound 79]"
classification = "n"


Q: Lab note: MIC90 threshold 2 µg/mL. Does this compound come in strictly under it? CC(C)NC(=N)c1ccc(OCCCCOc2ccc(-c3cc4cc(C(=N)NC(C)C)ccc4o3)cc2)cc1.Cl.Cl [Compound 48]
Result: n

Q: Take the compound Cl.Cl.N=C(N)c1ccc2oc(CCc3cc4cc(C(=N)N)ccc4o3)cc2c1 [Compound 8] and say whether its MIC90 is less than 2 µg/mL.
Result: n

Q: Please indicate whether the reported MIC90 of Cl.Cl.c1cc(C2=NCCN2)ccc1OCCCCCOc1ccc(-c2cc3cc(C4=NCCN4)ccc3o2)cc1 [Compound 52] is strictly below 2 µg/mL.
Result: n

###

Structures can show the parent of a compound that is named as a salt.
readout_kind: melting point

[[record]]
compound = "Cl.Cl.N=C(N)c1ccc(OCCCOc2cccc(-c3cc4cc(C(=N)N)ccc4o3)c2)cc1"
result = "175 to 178 °C"

[[record]]
compound = "CC(C)NC(=N)c1ccc(OCCCCOc2cccc(-c3cc4ccc(C(=N)NC(C)C)cc4o3)c2)cc1.Cl.Cl"
result = "228 to 230 °C"

[[record]]
compound = "CC(C)NC(=N)c1ccc(OCCCCCOc2cccc(-c3cc4ccc(C(=N)NC(C)C)cc4o3)c2)cc1.Cl.Cl"
result = "253 to 255 °C"


// each listed compound needs a value for melting point
1. Cl.Cl.N=C(N)c1ccc(OCCCOc2cccc(-c3cc4ccc(C(=N)N)cc4o3)c2)cc1
2. CC(C)NC(=N)c1ccc(OCCCCCOc2ccc(-c3cc4ccc(C(=N)NC(C)C)cc4o3)cc2)cc1.Cl.Cl
3. N=C(NO)c1ccc(-c2cc3ccc(C(=N)NO)cc3o2)cc1 (as salt: HCl)

Result:
196 to 200 °C
255 to 257 °C
210 °C (dec.)

Batch request: melting point per item, same order as input.
1. N=C(NO)c1ccc2oc(CCCc3cc4cc(C(=N)NO)ccc4o3)cc2c1 (as salt: HCl)
2. CC(C)NC(=N)c1ccc(OCCCCCOc2cccc(-c3cc4cc(C(=N)NC(C)C)ccc4o3)c2)cc1.Cl.Cl
3. Cl.Cl.c1cc(C2=NCCN2)ccc1OCCCCCCOc1ccc(-c2cc3ccc(C4=NCCN4)cc3o2)cc1

Result:
1. 145 to 147 °C (dec.)
2. 225 to 227 °C
3. 265 to 269 °C

Provide the reported melting point of each entry below, same order.
1. N=C(NO)c1ccc2oc(CCCCc3cc4cc(C(=N)NO)ccc4o3)cc2c1 (as salt: HCl)
2. Cl.Cl.c1cc(C2=NCCN2)ccc1OCCCCCOc1ccc(-c2cc3cc(C4=NCCN4)ccc3o2)cc1
3. CONC(=N)c1ccc2oc(CCCCCc3cc4cc(C(=N)NOC)ccc4o3)cc2c1 (as salt: HCl)

Result:
1. 231 °C (dec.)
2. 258 to 261 °C
3. 118 °C (dec.)

I need melting point for every entry listed below, if you could help.
1. Cl.Cl.N=C(N)c1ccc2oc(CCCc3cc4cc(C(=N)N)ccc4o3)cc2c1
2. Cl.Cl.N=C(N)c1ccc(OCCCOc2ccc(-c3cc4ccc(C(=N)N)cc4o3)cc2)cc1

Result:
["168 to 170 °C", "294 to 295 °C"]

Q: Specify reported melting point for the compound shown: `CC(C)NC(=N)c1ccc(OCCCCOc2cccc(-c3cc4cc(C(=N)NC(C)C)ccc4o3)c2)cc1.Cl.Cl`
Result: 207 to 210 °C
